experimental.system: T1, cynomolgus monkey HVEM (cynomolgus monkey, UniProt A0A2K5W0R1 39-203); note: test concentration or dose not given here
T1 sequence: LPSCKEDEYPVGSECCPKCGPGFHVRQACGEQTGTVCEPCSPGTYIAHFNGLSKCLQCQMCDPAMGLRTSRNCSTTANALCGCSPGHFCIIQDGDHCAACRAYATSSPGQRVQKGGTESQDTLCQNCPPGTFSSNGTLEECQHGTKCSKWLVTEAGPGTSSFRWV
procedure.summary: ELISA
quantity: ELISA signal

binder | ELISA signal
Ab_061 (H5S19-13A16B) (antibody, V domains shown, also called Ab_61) VH: QIQLVQSGPELKKPGETVKISCKASGYTFTNFGVNWVKQAPGKGLKWMGWINTYTGEPTYADDFKGRFAFSLETSASTAYLRINNLKNEDTATYFCARSYYANYAYWGQGTTLTVSS VL: QIVLTQSPAIMSASPGEKVTLTCSASSSVDSSYLYWYQQKPGSSPKLWIYGTSNLASGVPARFSGSGSGTSYSLTISSMEAEDAASYFCHQWNSYPWTFGGGTKLEIK | 3.03

I have this binder here, Ab_006 (H5S14-5A5A) (antibody, V domains shown, also called Ab_6) VH: DVQLQESGPGLVKPSQSLSLTCTVTGYSITSDFAWNWIRQFPGNKLEWMGYIVYSGSTSYNPSLKSRISITRDTSKNQFFLQLNSVTAEDTATYFCTRGMDYWGQGTSVTVSS VL: QIVLTQSPAIISASLGEEVTLTCSASSSVSYMHWYQQKSGTSPKLLIYSTSNLASGVPSRFSGSGSGTFYSLTISSVEAEDAADYYCHQWSSYLTFGAGTKLELK , and I need its recorded ELISA signal.
2.69

Data origin: patent US20240317871A1
